tested on: HepG2; assay: GSK_TCMDC: Percent inhibition of human HepG2 cell line. Test compounds present at 10uM.; assay type: functional
Readings of Inhibition for the listed molecules
Give your result in % as a bare value.

Using HepG2 as the test system, report measured Inhibition of CC[C@H](C)CNC(=O)c1ccnc(-c2cccc(CN3CCC(N4CCCC4)CC3)c2)c1.O=C(O)C(F)(F)F .
0

Using HepG2 as the test system, report measured Inhibition of COc1cccc2c1CCN(CCN1CCC(CNC(=O)c3ccc(-c4ccc(C#N)cc4)cc3)CC1)C2 .
57

Using HepG2 as the test system, report measured Inhibition of CN1CCC(Oc2ccc(CN3CC[C@H](NC(=O)c4ccc(Cl)c(Cl)c4)C3)cc2Cl)C1.O=C(O)C(F)(F)F (some centres undefined) .
68

Using HepG2 as the test system, report measured Inhibition of COc1ccc2nc(-c3cccc(C)n3)nc(Nc3ccncc3)c2c1 .
0

Using HepG2 as the test system, report measured Inhibition of Cc1cccc2nc(-c3ccc(-c4ccc(CNCc5cnn(-c6ccccc6)n5)cc4)cc3)[nH]c12.O=C(O)C(F)(F)F .
35

Using HepG2 as the test system, report measured Inhibition of CCCNCc1ccc(-c2ccc(CN(CCOC)C(=O)[C@H]3CCCO3)cc2)nc1.O=C(O)C(F)(F)F .
1

Using HepG2 as the test system, report measured Inhibition of COc1ccc(Oc2ccccc2CNCC2CCN(CC3CCCCC3)CC2)cc1.O=C(O)C(F)(F)F .
34

Using HepG2 as the test system, report measured Inhibition of O=C(/C=C/c1ccc(Cl)c(Cl)c1)NCCCCCN1CCC(NC(=O)NC2CCCCC2)CC1 .
22

Using HepG2 as the test system, report measured Inhibition of CCCC(=O)Nc1ccc(OCCCN(Cc2ccccc2C(F)(F)F)c2ccc(C#N)c(C(F)(F)F)c2)cc1 .
0

====

tested on: HepG2; assay: GSK_TCMDC: Percent inhibition of human HepG2 cell line. Test compounds present at 10uM.; format: functional
Returns 1 (yes) if the recorded Inhibition is greater than or equal to 2%, and 0 (no) otherwise.

Worked examples follow.
[
  {
    "COMPOUND": "Cc1ccc(C(=O)NC2C(=O)NC2c2ccccc2)c(C)c1 (stereo unspecified)",
    "GROUP": "1 (yes)"
  },
  {
    "COMPOUND": "CCCCCCCN1CCC(CCNc2ccnc3ccc(OC)cc23)CC1",
    "GROUP": "1 (yes)"
  },
  {
    "COMPOUND": "COc1cccc(C(=O)Nc2ccc(Oc3ccc(Cl)cc3)cc2)c1",
    "GROUP": "1 (yes)"
  }
]

Does the compound O=C(CNCC1CCCCC1)Nc1cc(C(F)(F)F)ccc1Cl have recorded Inhibition that is 2% or more?
0 (no)

====

tested on: Plasmodium falciparum; test: GSK_TCMDC: Inhibition of Plasmodium falciparum 3D7 in whole red blood cells, using parasite LDH activity as an index of growth. Test compounds present at 2uM; assay type: functional
READOUT: Inhibition (%)
Give your result in % as a bare value.

Example entries and their recorded answers appear below.
[
  {
    "COMPOUND": "COc1ccc(Nc2ncc3c(-c4cccc(NC(=O)CC(C)C)c4)c[nH]c3n2)cc1OC",
    "SYSTEM NAME": "Plasmodium falciparum",
    "READOUT": "Inhibition",
    "NUMBER": 100
  },
  {
    "COMPOUND": "Cl.O=C(Nc1ccncc1)Nc1ccc2c(c1)CCN(C1CCC1)CC2",
    "SYSTEM NAME": "Plasmodium falciparum",
    "READOUT": "Inhibition",
    "NUMBER": 87
  },
  {
    "COMPOUND": "N#Cc1ccc(-c2ccc(C(=O)NCCCCN3CC=C(c4ccc5c(c4OCC4CC4)CCCC5)CC3)cc2)cc1",
    "SYSTEM NAME": "Plasmodium falciparum",
    "READOUT": "Inhibition",
    "NUMBER": 100
  },
  {
    "COMPOUND": "O=C(/C=C/c1ccc(Cl)c(Cl)c1)NCCCCCN1CCC(CCNC(=O)c2snnc2-c2ccccc2)CC1",
    "SYSTEM NAME": "Plasmodium falciparum",
    "READOUT": "Inhibition",
    "NUMBER": 89
  },
  {
    "COMPOUND": "NC1=NC(c2ccccc2)(c2ccccc2)C(=O)N1CCOc1ccccc1",
    "SYSTEM NAME": "Plasmodium falciparum",
    "READOUT": "Inhibition",
    "NUMBER": 90
  },
  {
    "COMPOUND": "Fc1ccc(CN2CCN(c3ncnc4cc(-c5ccccc5)sc34)CC2)cc1",
    "SYSTEM NAME": "Plasmodium falciparum",
    "READOUT": "Inhibition",
    "NUMBER": 82
  },
  {
    "COMPOUND": "O=C(NCC1CC1)C1CCN(C(c2ccccc2)c2nc3ccccc3s2)CC1 (centres undefined)",
    "SYSTEM NAME": "Plasmodium falciparum",
    "READOUT": "Inhibition",
    "NUMBER": 92
  },
  {
    "COMPOUND": "COc1ccc2nc(NC(N)=NC(=O)Nc3ccccc3)nc(C)c2c1",
    "SYSTEM NAME": "Plasmodium falciparum",
    "READOUT": "Inhibition",
    "NUMBER": 90
  }
]

Continue with the compound presented below.
Answer with the recorded Inhibition of CCCCCCCCCN(CCC)C(=O)[C@@H]1OC(C(=O)OC(c2ccccc2)c2ccccc2)=C[C@H](NC(=O)OC(C)(C)C)[C@H]1NC(C)=O only.
91

====

tested on: Plasmodium falciparum; assay: GSK_TCMDC: Inhibition of Plasmodium falciparum 3D7 in whole red blood cells, using parasite LDH activity as an index of growth. Test compounds present at 2uM; format: functional
READOUT: Inhibition (%)
Give your result in % as a bare value.

[
  {
    "COMPOUND": "CN/C(=N\\O)NCCN(C)C.Cl",
    "UNITS TEXT": "%",
    "Inhibition": 88
  },
  {
    "COMPOUND": "CCc1cn(C)c2c(N3CCCC3=O)cc(C(=O)N[C@@H](Cc3ccccc3)[C@H](O)CNCc3cccc(OC)c3)cc12",
    "UNITS TEXT": "%",
    "Inhibition": 96
  },
  {
    "COMPOUND": "Cc1oc(-c2ccc(Cl)cc2)cc1C(=O)NCCC1CCN(CCCCCNC(=O)/C=C/c2ccc(Cl)c(Cl)c2)CC1",
    "UNITS TEXT": "%",
    "Inhibition": 100
  },
  {
    "COMPOUND": "COc1ccc(C2C(C(=O)Nc3cc(Cl)c(OC)cc3OC)c3ccccc3C(=O)N2C)cc1 (configuration not stated)",
    "UNITS TEXT": "%",
    "Inhibition": 100
  },
  {
    "COMPOUND": "CN(C)Cc1c(O)ccc2oc(Cc3ccccc3)cc12.Cl",
    "UNITS TEXT": "%",
    "Inhibition": 99
  },
  {
    "COMPOUND": "O=C(NCCCCCN1CCC(c2c[nH]c3ccccc23)CC1)Nc1cccc(Cl)c1",
    "UNITS TEXT": "%",
    "Inhibition": 86
  }
]

Answer with the recorded Inhibition of COc1ccc(CC(=O)NC(CCCN2CCC(c3ccccc3)CC2)c2ccc(Cl)c(Cl)c2)cc1OC (configuration not stated) only.
82

Answer with the recorded Inhibition of O=C(Cc1cccc(Cl)c1)Nc1cccc(-c2c[nH]c3nc(Nc4cccc(OCc5ccccc5)c4)ncc23)c1.O=C(O)C(F)(F)F only.
100

Answer with the recorded Inhibition of C=CCn1c(SCC(=O)Nc2cc(C)ccc2OC)nc2sc(C)cc2c1=O only.
100

Answer with the recorded Inhibition of COc1cccc2cc(C(=O)N[C@@H](CC(C)C)C(=O)N[C@H](C=NN3CC(=O)NC3=O)CC(C)C)oc12 only.
86

Answer with the recorded Inhibition of CSC1=NC(=Nc2c(C)cccc2C)C2(CCCCC2)N1c1ccccc1Cl only.
95

Answer with the recorded Inhibition of COc1ccccc1NC(=O)Nc1cccc(-c2cccc(-c3nc4cccc(C)c4[nH]3)c2)c1 only.
100

Answer with the recorded Inhibition of Cl.NC(=O)c1sc(-n2cnc3ccc(OCC4CCNCC4)cc32)cc1OCc1ccccc1C(F)(F)F only.
100

Answer with the recorded Inhibition of Cc1ccc(C(=O)NC2CCN(CCNC(=O)Nc3cc(C)nc4ccccc34)CC2)cc1 only.
98

====

test system: Plasmodium falciparum; assay: GSK_TCMDC: Inhibition of Plasmodium falciparum Dd2 in whole red blood cells, using parasite LDH activity as an index of growth. Test compounds present at 2uM; type: functional
READOUT: Inhibition (%)
Give your result in % as a bare value.

[
  {
    "COMPOUND": "Br.COc1cccc(OC)c1OCCCON1C(=N)N=C(N)NC1(C)C",
    "Inhibition (%)": 96
  },
  {
    "COMPOUND": "O=[N+]([O-])c1ccc(C=NNc2nc(Nc3ccccc3)nc(Nc3ccccc3)n2)o1",
    "Inhibition (%)": 61
  },
  {
    "COMPOUND": "O=C(C1CCN(C(c2ccccc2)c2ccc(Cl)c(Cl)c2)CC1)N1CC=CC1 (configuration not stated)",
    "Inhibition (%)": 84
  },
  {
    "COMPOUND": "O=C(O)C(F)(F)F.c1cc(CN2CCN(CCN3CCOCC3)CC2)cc(-c2csc(-c3nc4ccccc4[nH]3)c2)c1",
    "Inhibition (%)": 99
  },
  {
    "COMPOUND": "O=C(Nc1ccccc1)N(Cc1cccc(-c2ccc(CNCCc3ccccc3)cc2)c1)C1CCN(Cc2ccccc2)CC1.O=C(O)C(F)(F)F",
    "Inhibition (%)": 95
  }
]

Using Plasmodium falciparum as the test system, report measured Inhibition of COc1ccccc1CCN1CCC(CN(C)Cc2ccc(O)c(Cl)c2)CC1 .
52

Using Plasmodium falciparum as the test system, report measured Inhibition of COc1cc(C=CC(=O)N2CCC3(CC2)CC(=O)c2ccccc2O3)cc(OC)c1OC .
66

Using Plasmodium falciparum as the test system, report measured Inhibition of Cl.N=c1c2c(n(Cc3ccccc3)c3c1CCC3)CCCC2 .
39

Using Plasmodium falciparum as the test system, report measured Inhibition of O=C(Nc1ccc(Cl)c(Cl)c1)C1CCC(=O)N1[C@@H](Cc1ccccc1)C(=O)NCCc1ccc(Cl)cc1 (some centres not stated) .
0

Using Plasmodium falciparum as the test system, report measured Inhibition of COc1ccc(Nc2nccc(NCCNC(=O)Nc3ccccc3F)n2)cc1 .
4

Source of measurements: ChEMBL document CHEMBL1157539
